# Target Or Test System: BRCA1-associated ATM activator 1 (BRAT1) (Homo sapiens, UniProt Q6PJG6)
# Sequence (Q6PJG6 whole entry): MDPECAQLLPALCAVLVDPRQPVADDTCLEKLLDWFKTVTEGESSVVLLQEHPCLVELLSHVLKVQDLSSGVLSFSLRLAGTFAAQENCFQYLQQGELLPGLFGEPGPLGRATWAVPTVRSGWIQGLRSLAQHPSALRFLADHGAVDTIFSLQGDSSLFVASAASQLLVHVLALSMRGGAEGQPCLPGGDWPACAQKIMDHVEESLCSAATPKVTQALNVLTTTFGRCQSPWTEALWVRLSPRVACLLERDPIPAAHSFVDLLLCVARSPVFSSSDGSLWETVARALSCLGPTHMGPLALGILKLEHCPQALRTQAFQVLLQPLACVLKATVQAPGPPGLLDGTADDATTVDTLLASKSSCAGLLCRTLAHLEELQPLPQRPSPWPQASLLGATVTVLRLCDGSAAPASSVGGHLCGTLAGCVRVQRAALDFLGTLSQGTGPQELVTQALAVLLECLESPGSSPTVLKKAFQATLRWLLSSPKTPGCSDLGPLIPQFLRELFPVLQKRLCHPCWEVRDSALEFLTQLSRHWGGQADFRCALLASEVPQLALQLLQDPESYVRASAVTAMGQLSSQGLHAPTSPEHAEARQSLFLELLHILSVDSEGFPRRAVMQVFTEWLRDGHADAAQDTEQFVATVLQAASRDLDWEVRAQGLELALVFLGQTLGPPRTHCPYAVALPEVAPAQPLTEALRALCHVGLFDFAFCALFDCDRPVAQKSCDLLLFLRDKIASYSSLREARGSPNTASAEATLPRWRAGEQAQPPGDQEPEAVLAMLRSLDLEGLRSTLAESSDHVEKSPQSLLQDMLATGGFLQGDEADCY
Measure: EC50 (nM)

INSERT INTO results (compound, measurement) VALUES
  ('C=C(C)C1CCC(=C)C2C3=C(C[C@@](C)(O)C3=O)C(=O)C(C)=C[C@@H]12 (stereo partly shown) [1d, curcusone D]', 2700);
